Taken from paper PMC7819943.

target: OsWRKY34 (Oryza sativa, UniProt Q0JBA9 1-250); experiment: protein-binding microarray (RPBM); PBS, 2% BSA, 51.3 ng/ul salmon testes DNA, 50 uM zinc acetate, 200 nM TF, 25 C, 1 h; high values mean tight binding; conditions: protein: recombinant; tags: N-terminal polyhistidine and DsRed monomer fusion (pET32a); label: CyDye5-dUTP incorporated in the synthesized complementary strand; 3' TTTTT single-stranded linker to array surface; dsDNA, one strand shown
Sequence (Q0JBA9 entry or part of it): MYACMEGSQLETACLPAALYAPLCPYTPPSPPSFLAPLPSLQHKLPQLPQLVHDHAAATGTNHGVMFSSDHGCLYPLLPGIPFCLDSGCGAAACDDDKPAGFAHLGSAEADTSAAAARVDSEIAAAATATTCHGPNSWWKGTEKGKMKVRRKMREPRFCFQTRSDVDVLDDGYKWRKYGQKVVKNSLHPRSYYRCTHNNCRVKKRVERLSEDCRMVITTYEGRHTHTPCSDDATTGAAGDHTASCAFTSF
In all, about 68,000 sequences were measured (“fluorescence intensity (a.u.)”: median about 9,100, highest 2% from about 16,000 on). The sample holds the highest values, similar sequences and a random draw of the others, so the mix is not that of the screen.

seq	testedTarget	binding signal
CTCATTGTTGTTGTGTTGTTGCGTTTGGTTTGGTGTGCTCCGGAGTCACCTAGTGCAG	OsWRKY34 (Oryza sativa, UniProt Q0JBA9 1-250)	8510 fluorescence intensity (a.u.)
AACCTCAATTTTGTTTGTTTTGCCTTTTGGTTCAAATACTCGGAGTCACCTAGTGCAG	OsWRKY34 (Oryza sativa, UniProt Q0JBA9 1-250)	8180 fluorescence intensity (a.u.)
GTTGGTTGGTTGGTTGGTTGGCTTCTTCTCGGTTTGTTCGCGGAGTCACCTAGTGCAG	OsWRKY34 (Oryza sativa, UniProt Q0JBA9 1-250)	25000 fluorescence intensity (a.u.)
TCTACGAGGGTTTTTGCGCTTTTGTTGCTCTCCGCTCCGCCGGAGTCACCTAGTGCAG	OsWRKY34 (Oryza sativa, UniProt Q0JBA9 1-250)	8160 fluorescence intensity (a.u.)
AGAGGGGACTGGGGAGGGGAGGGGCGGCGCTCGCTGGCTTCGGAGTCACCTAGTGCAG	OsWRKY34 (Oryza sativa, UniProt Q0JBA9 1-250)	17500 fluorescence intensity (a.u.)
GGTTGGCTTCTTCTCGGTTTGTTCGTTCCTTGTGGTCGAGCGGAGTCACCTAGTGCAG	OsWRKY34 (Oryza sativa, UniProt Q0JBA9 1-250)	8240 fluorescence intensity (a.u.)
CTGCGCTCTCCATTGTTTTGTGTTGTGTTTGTTTGCAGTCCGGAGTCACCTAGTGCAG	OsWRKY34 (Oryza sativa, UniProt Q0JBA9 1-250)	17700 fluorescence intensity (a.u.)
TTTGACGCCGTTGACTTTTTTAAACATGCTTGATCATTCACGGAGTCACCTAGTGCAG	OsWRKY34 (Oryza sativa, UniProt Q0JBA9 1-250)	13700 fluorescence intensity (a.u.)
GCGTTTTTGTCTCTCTGCTCTCTGCTGCTGCTGCTGGGTCCGGAGTCACCTAGTGCAG	OsWRKY34 (Oryza sativa, UniProt Q0JBA9 1-250)	11300 fluorescence intensity (a.u.)
GCTCGCCGCGTGCTCTCGTCATCCATCCGACCCACGCCCGCGGAGTCACCTAGTGCAG	OsWRKY34 (Oryza sativa, UniProt Q0JBA9 1-250)	11000 fluorescence intensity (a.u.)
TTGGATTGGGCTGCGGACCTGCGGTGGAGGGATTCAGGGTCGGAGTCACCTAGTGCAG	OsWRKY34 (Oryza sativa, UniProt Q0JBA9 1-250)	8240 fluorescence intensity (a.u.)
ATATACTCCCTCCTTCCCTAAATGTTTGACGCCGTTGACTCGGAGTCACCTAGTGCAG	OsWRKY34 (Oryza sativa, UniProt Q0JBA9 1-250)	11400 fluorescence intensity (a.u.)
TATTTGACTTCCGGCTTTTGTTTCCTTGATACTTTACTCTCGGAGTCACCTAGTGCAG	OsWRKY34 (Oryza sativa, UniProt Q0JBA9 1-250)	9780 fluorescence intensity (a.u.)
AGGATTCAATTTGGACTTTGGTGGAGGGGAGGGGCTGCTGCGGAGTCACCTAGTGCAG	OsWRKY34 (Oryza sativa, UniProt Q0JBA9 1-250)	22100 fluorescence intensity (a.u.)
ACGCCGTTGACTTTTTAAGCAACATTTGACCATTCGTTTTCGGAGTCACCTAGTGCAG	OsWRKY34 (Oryza sativa, UniProt Q0JBA9 1-250)	30000 fluorescence intensity (a.u.)
CAGTGTCCGTTTTCTCCGACAAACTCGGCGTGGCCACAGTCGGAGTCACCTAGTGCAG	OsWRKY34 (Oryza sativa, UniProt Q0JBA9 1-250)	9840 fluorescence intensity (a.u.)
ACTTTATTACACACATAAACTTTCAACTTTACCGTCACATCGGAGTCACCTAGTGCAG	OsWRKY34 (Oryza sativa, UniProt Q0JBA9 1-250)	9420 fluorescence intensity (a.u.)
GGGAAACCAGGCTATCCTCTTGGTCACTCTGCACCAATTCCGGAGTCACCTAGTGCAG	OsWRKY34 (Oryza sativa, UniProt Q0JBA9 1-250)	10500 fluorescence intensity (a.u.)
TCCGTTTCGAAATGCTTGACGCCGTTGACTTTTTTAAACACGGAGTCACCTAGTGCAG	OsWRKY34 (Oryza sativa, UniProt Q0JBA9 1-250)	19400 fluorescence intensity (a.u.)
